This collection of values is drawn from the supplement of paper PMC6992640.

# System: HCI11 (cells of an ER-positive luminal breast cancer xenograft);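 note: PDX cells carrying CMV promoter-driven luciferase, viability read as total photon flux per second by IVIS imaging following D-luciferin, vehicle control 0.1% DMSO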
# Test Method Notes: cell viability (% of vehicle); higher = less cytotoxic
# Test Settings: 10 µM; 72 h
cell viability for assorted compounds

Compound: CS(=O)(=O)Nc1ccc([N+](=O)[O-])cc1Oc1ccccc1 [Nimesulide]
cell viability: 104

Compound: CCCc1ncc(C[n+]2ccccc2C)c(N)n1.Cl.[Cl-] [Amprolium HCl]
cell viability: 104

Compound: CC(O)C1C(=O)N2C(C(=O)O)=C(SC3CNC(CNS(N)(=O)=O)C3)C(C)C12.O (centres undefined) [Doripenem Hydrate]
cell viability: 84.3

Compound: COc1cccc2c1C(=O)c1c(O)c3c(c(O)c1C2=O)CC(O)(C(=O)CO)CC3OC1CC(N)C(O)C(C)O1 (centres undefined) [Doxorubicin]
cell viability: 49.6
